OUTCOME MEASURE: MIC (µg/mL)
Report the value in µg/mL with no unit label.

Lab entry: Streptococcus sp. 80 assay, compound CCC1OC(=O)CC(O)C(C)C(OC2OC(C)C(OC3CC(C)(O)C(O)C(C)O3)C(N(C)C)C2O)C(CC=O)CC(C)C(=O)C=CC(C)=CC1COC(=O)N1CCC(O)CC1 (stereo not shown) , MIC = 0.39

Lab entry: Streptococcus sp. 80 assay, compound CCC1OC(=O)CC(O)C(C)C(OC2OC(C)C(OC3CC(C)(O)C(O)C(C)O3)C(N(C)C)C2OC(C)=O)C(CC=O)CC(C)C(=O)C=CC(C)=CC1COC(=O)Cc1cc(OC)ccc1OC (stereo not shown) , MIC = 0.195

Lab entry: Streptococcus sp. 80 assay, compound CCC(=O)OC1C(OC2C(CC=O)CC(C)C(=O)C=CC(C)=CC(COC(C)=O)C(CC)OC(=O)CC(O)C2C)OC(C)C(OC2CC(C)(O)C(O)C(C)O2)C1N(C)C (stereo not shown) , MIC = 0.39

Lab entry: Streptococcus sp. 80 assay, compound CCC1OC(=O)CC(O)C(C)C(OC2OC(C)C(OC3CC(C)(O)C(O)C(C)O3)C(N(C)C)C2OC(C)=O)C(CC=O)CC(C)C(=O)C=CC(C)=CC1COC(=O)C(Cl)(Cl)Cl (stereo not shown) , MIC = 0.39

Lab entry: Streptococcus sp. 80 assay, compound CCC1OC(=O)CC(O)C(C)C(OC2OC(C)C(OC3CC(C)(O)C(O)C(C)O3)C(N(C)C)C2OC(C)=O)C(CC=O)CC(C)C(=O)C=CC(C)=CC1COC(=O)OC (stereo not shown) , MIC = 0.78

Lab entry: Streptococcus sp. 80 assay, compound CCC1OC(=O)CC(O)C(C)C(OC2OC(C)C(OC3CC(C)(O)C(O)C(C)O3)C(N(C)C)C2OC(C)=O)C(CC=O)CC(C)C(=O)C=CC(C)=CC1COC(=O)Cc1ccc(Cl)cc1 (stereo not shown) , MIC = 0.78

Lab entry: Streptococcus sp. 80 assay, compound CCC1OC(=O)CC(O)C(C)C(OC2OC(C)C(OC3CC(C)(O)C(O)C(C)O3)C(N(C)C)C2OC(C)=O)C(CC=O)CC(C)C(=O)C=CC(C)=CC1COC(=O)C=Cc1ccccc1 (stereo not shown) , MIC = 0.78

Lab entry: Streptococcus sp. 80 assay, compound CCC1OC(=O)CC(O)C(C)C(OC2OC(C)C(OC3CC(C)(O)C(O)C(C)O3)C(N(C)C)C2OC(C)=O)C(CC=O)CC(C)C(=O)C=CC(C)=CC1COC(=O)Cc1ccc([N+](=O)[O-])cc1 (stereo not shown) , MIC = 0.39

Lab entry: Streptococcus sp. 80 assay, compound CCCCCCCC(=O)OCC1C=C(C)C=CC(=O)C(C)CC(CC=O)C(OC2OC(C)C(OC3CC(C)(O)C(O)C(C)O3)C(N(C)C)C2OC(C)=O)C(C)C(O)CC(=O)OC1CC (stereo not shown) , MIC = 1.56

----------
Please provide measured MIC for the entries that follow.
- Test system: Streptococcus Group 9960
Report the value in µg/mL with no unit label.

Lab book: MIC of CCC1OC(=O)CC(O)C(C)C(OC2OC(C)C(OC3CC(C)(O)C(O)C(C)O3)C(N(C)C)C2O)C(CC=O)CC(C)C(=O)C=CC(C)=CC1COC(=O)NCCCCCCCCN (stereo not drawn) noted as 4

Lab book: MIC of CCC1OC(=O)CC(O)C(C)C(OC2OC(C)C(OC3CC(C)(O)C(O)C(C)O3)C(N(C)C)C2OC(C)=O)C(CC=O)CC(C)C(=O)C=CC(C)=CC1COC(=O)Cc1cc(OC)ccc1OC (stereo not drawn) noted as 2

Lab book: MIC of CCC1OC(=O)CC(O)C(C)C(OC2OC(C)C(OC3CC(C)(O)C(O)C(C)O3)C(N(C)C)C2OC(C)=O)C(CC=O)CC(C)C(=O)C=CC(C)=CC1COC(=O)NCc1ccccc1 (stereo not drawn) noted as 0.5

Reference source: patent US4396613A
